biological target: T1, human Claudin18.2 (human); assay: cell ELISA, Claudin18.2-expressing HEK293T cells
T1 construct: also called CLDN18.2
pEC50: −log10 of the molar value.
MEASUREMENT_TYPE: pEC50

Worked examples, 3 binders total:
405G8F11 (antibody, V domains shown, mouse hybridoma mAb) VH: DVQLVESGGGLVQPGGSRKLSCVTSGFTFSSFGMHWVRQAPEKGLEWVAYISSGSSPIYYADTVKGRFTISRDNPKNTLFLQMSSLRSEDTAMYFCARFYYGNSFAYWGQGTLVTVSA VL: DIVMTQSPSSLTVTAGEKVTMNCKSSQSLLNSGNQKNYLTWYQQKLGQPPKLLMYWASTRESGVPDRFTGSGSGTDFTLTISSVQAEDLAVYFCQSAFSYPLTFGAGTKLELK: ~7.04
257G7F7 (antibody, V domains shown, mouse hybridoma mAb) VH: QAYLQQSGAELVRSGASVKMSCKASGYTFTSHNLHWVKQTPGQGLEWIGYIYPGNGNTNYNQKFKGKATLTADTSSSTAYMQISSLTSEDSAVYFCTRDYYGNSFAYWGQGTLVTVSA VL: DIVMTQSPSSLTEKAGERVSMSCKSSQSLFNSGNQKNYLTWYQQKPGQPPKLLIYWASTRESGVPDRFTGSGSGTDFTLTISSVQAEDLAVYYCQNNYWFPFTFGAGTKLELK: ~9.38
252C10F6 (antibody, V domains shown, mouse hybridoma mAb) VH: QVHLKQSGRGLVQPSQSLSITCTVSGFSLPNYGVHWVRQPPGKGLEWLGVIWSGGNTDYNTVFKARLSITKDNSKSQVFFKMNSLQADDTAIYYCARNLYGNYDYAMDYWGQGTSVTVSS VL: DIVMTQSPATLSVTPGDRVSLSCRASQSISDYLHWYQQKSHESPRLLIKYASQSISGIPSRFSGSGSGSEFTLSINSVEPEDVGVYYCQNGHSFPFTFGSGTKLEIK: ~7.90

// query For the binder 391F1G2 (antibody, V domains shown, mouse hybridoma mAb) VH: DVQLVESGGGLVQPGGSRKLSCAASGFTFSSFGMHWVRQAPEKGLEWVAYISSGSSPIYYADTVKGRFTISRDNPKNTLFLQMTSLRSEDTAMYFCARIYYGNSFAYWGQGTLVTVSA VL: DIVMTQSPSSLTVTAGEKVAMSCKSSQTLLNSGNQKNYLTWYQQKPGQPPKLLLYWASTRESGVPDRFTGSGSGTDFTLTISSVQAEDLAVYYCQNAYYYPLTFGSGTKLELK , what pEC50 is on record?
// result ~8.57
